Target: T1, Goat anti-Human Kappa
T1 construct: Positive control; also called biotinylated goat anti-human kappa light chain
Assay: ELISA; positive control; note: test concentration or dose not given here
Listing of recorded optical density by entry.
Kindly provide the numeric value in OD only, without the unit symbol.

[
  {
    "binder": "368_D12 (antibody, V domains shown, VH/VL only) VH: EVQLLESGGGLVQPGGSLRLSCAASGFTFSSYGMNWVRQAPGKGLEWVSSINYNGGYTSYADSVKGRFTISRDNSKNTLYLQMNSLRAEDTAVYYCARGATWHDTHLDYWGQGTLVTVSS VL: DIQMTQSPSSLSASVGDRVTITCRASQSILSYVNWYQQKPGKAPKLVIYAATSRASGVPSRFSGSGSGTDFTLTISSLQPEDFATYYCQQSYNNPLTFGGGTKVEIK",
    "optical density, OD": 3.57
  },
  {
    "binder": "368_G03 (antibody, V domains shown, VH/VL only) VH: EVQLLESGGGLVQPGGSLRLSCAASGFTFSSYSMNWVRQAPGKGLEWVSGINYNSGYTSYADSVKGRFTISRDNSKNTLYLQMNSLRAEDTAVYYCARGATWHDTALDYWGQGTLVTVSS VL: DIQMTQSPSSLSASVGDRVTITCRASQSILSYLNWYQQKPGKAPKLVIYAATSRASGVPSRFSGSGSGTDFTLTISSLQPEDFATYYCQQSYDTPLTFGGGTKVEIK",
    "optical density, OD": 3.39
  }
]

# get_value(readout='optical density', item= 371_E05 (antibody, V domains shown, VH/VL only) VH: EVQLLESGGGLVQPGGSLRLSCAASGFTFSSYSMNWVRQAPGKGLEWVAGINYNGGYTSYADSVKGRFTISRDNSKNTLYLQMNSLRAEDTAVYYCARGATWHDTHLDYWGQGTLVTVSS VL: DIQMTQSPSSLSASVGDRVTITCRASQSIISYLNWYQQKPGKAPKLVIYAATSRASGVPSRFSGSGSGTDFTLTISSLQPEDFATYYCQQSYSSPLTFGGGTKVEIK ) 3.45

Item: 365_C04 (antibody, V domains shown, VH/VL only) VH: EVQLLESGGGLVQPGGSLRLSCAASGFTFDSYSMNWVRQAPGKGLEWVANINYNGGYKGYADSVKGRFTISRDNSKNTLYLQMNSLRAEDTAVYYCARGATWHDTHLDYWGQGTLVTVSS VL: DIQMTQSPSSLSASVGDRVTITCRASQSILTYLNWYQQKPGKAPKLVIYAATSLASGVPSRFSGSGSGTDFTLTISSLQPEDFATYYCQQSYDTPLTFGGGTKVEIK 3.55

Item: 376_A02 (antibody, V domains shown, VH/VL only) VH: EVQLLESGGGLVQPGGSLRLSCAASGFTFSSYSMNWVRQAPGKGLEWVAGINYNGGYKSYADSVKGRFTISRDNSKNTLYLQMNSLRAEDTAVYYCARGATWHDTHLDYWGQGTLVTVSS VL: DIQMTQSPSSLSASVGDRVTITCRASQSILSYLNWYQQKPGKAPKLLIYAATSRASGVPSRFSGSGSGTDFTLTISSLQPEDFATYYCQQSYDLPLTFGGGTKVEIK 3.19
